The reported numbers originate from patent US20230192644A1.

# target_or_system: IKZF1 (Homo sapiens, UniProt Q13422)
# Construct: expressed in transfected cells
# Sequence (Q13422 83-213 isoform Q13422-7 limits assumed): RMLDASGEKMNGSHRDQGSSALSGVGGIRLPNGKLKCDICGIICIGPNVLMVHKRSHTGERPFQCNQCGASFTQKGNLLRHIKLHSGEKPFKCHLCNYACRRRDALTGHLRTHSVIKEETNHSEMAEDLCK
# Sequence (Q96SW2 whole entry partner): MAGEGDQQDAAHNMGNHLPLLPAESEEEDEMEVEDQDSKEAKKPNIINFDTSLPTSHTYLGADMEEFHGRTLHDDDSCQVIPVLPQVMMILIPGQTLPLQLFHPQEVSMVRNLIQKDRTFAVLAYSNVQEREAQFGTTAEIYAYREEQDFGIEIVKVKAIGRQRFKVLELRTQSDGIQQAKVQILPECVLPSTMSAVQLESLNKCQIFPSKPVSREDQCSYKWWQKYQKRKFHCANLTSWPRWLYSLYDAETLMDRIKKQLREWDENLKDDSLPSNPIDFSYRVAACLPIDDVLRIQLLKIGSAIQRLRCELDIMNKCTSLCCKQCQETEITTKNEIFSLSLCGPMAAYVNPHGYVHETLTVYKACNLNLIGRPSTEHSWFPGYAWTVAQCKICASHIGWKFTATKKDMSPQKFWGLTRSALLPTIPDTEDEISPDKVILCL
# Sequence (Q16531 whole entry partner): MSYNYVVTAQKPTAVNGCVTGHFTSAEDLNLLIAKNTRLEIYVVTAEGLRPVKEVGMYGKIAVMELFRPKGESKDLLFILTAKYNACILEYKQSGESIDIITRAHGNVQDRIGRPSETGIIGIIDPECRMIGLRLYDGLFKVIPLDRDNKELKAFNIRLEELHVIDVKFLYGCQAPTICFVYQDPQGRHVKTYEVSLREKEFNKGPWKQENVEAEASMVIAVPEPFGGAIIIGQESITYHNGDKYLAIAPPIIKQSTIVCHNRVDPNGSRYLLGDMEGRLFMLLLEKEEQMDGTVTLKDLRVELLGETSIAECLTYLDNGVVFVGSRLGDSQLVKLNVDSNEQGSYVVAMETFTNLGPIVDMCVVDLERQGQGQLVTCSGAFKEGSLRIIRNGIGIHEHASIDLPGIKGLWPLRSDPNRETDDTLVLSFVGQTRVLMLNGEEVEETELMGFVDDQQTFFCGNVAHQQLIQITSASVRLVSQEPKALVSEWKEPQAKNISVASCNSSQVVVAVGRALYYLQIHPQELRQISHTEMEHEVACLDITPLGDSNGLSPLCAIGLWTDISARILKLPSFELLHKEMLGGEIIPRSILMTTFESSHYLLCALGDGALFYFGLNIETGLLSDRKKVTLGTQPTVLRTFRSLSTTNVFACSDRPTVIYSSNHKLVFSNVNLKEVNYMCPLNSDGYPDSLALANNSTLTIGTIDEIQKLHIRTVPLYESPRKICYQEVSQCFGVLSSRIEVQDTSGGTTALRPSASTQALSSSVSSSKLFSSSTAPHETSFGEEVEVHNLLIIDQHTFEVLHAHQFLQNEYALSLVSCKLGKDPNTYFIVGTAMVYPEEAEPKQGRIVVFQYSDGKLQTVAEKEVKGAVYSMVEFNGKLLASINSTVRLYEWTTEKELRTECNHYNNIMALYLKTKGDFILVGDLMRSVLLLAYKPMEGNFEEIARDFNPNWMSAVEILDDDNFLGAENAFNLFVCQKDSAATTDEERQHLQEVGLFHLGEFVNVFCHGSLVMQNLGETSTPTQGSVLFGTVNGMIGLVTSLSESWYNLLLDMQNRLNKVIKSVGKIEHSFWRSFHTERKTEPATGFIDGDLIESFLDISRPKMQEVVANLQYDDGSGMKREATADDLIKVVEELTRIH
# assay_explanation: GFP-IKZF1 cellular degradation assay (eGFP fusion/mCherry reporter, Flip-In 293 cells)
# Format: cell-based
# study_conditions: read-out: GFP IKZF1 DC50; Flip-In 293 cells stably expressing IKZF1 GFP fusion with mCherry reporter, 5 h
Listed next: entries and their corresponding DC50.
Return type: number; implicit unit nM.

INSERT INTO assay_data (compound, target_or_system, test_result) VALUES
  ('CN(CCc1ccc(C(F)(F)F)c(Cl)c1)Cc1cccc(NC2=CC(=O)N(C3CCC(=O)NC3=O)C2=O)c1 (stereo not shown)', 'IKZF1 (Homo sapiens, UniProt Q13422)', 3.7),
  ('CC(C)(NCCc1ccc(C(F)(F)F)c(Cl)c1)c1cccc(NC2=CC(=O)N(C3CCC(=O)NC3=O)C2=O)c1 (stereo not shown)', 'IKZF1 (Homo sapiens, UniProt Q13422)', 1.1),
  ('CCC(NCCc1ccc(C(F)(F)F)c(Cl)c1)c1cccc(NC2=CC(=O)N(C3CCC(=O)NC3=O)C2=O)c1 (stereo not shown)', 'IKZF1 (Homo sapiens, UniProt Q13422)', 18);

Okay, next one:
Req: Any idea what its DC50 is? The compound is CC(C)(NCCc1cccc(C(F)(F)F)c1)c1cccc(NC2=CC(=O)N(C3CCC(=O)NC3=O)C2=O)c1 (stereo not shown)
Resp: 5.1
